Values compiled from patent US20240415918A1.

The reader will find reported EC50 values listed item by item below.
assay.target: CCK-B receptors (CHO-CCK) (Homo sapiens)
Construct: expressed in transfected cells; host or cells: CHO (CHO-CCK model cells)
test.protocol: Calcium flux (Fluo-8) antagonist test on CHO-CCK model cells in presence of CCK8
Format: cell-based
experimental.conditions: compound together with 10 nM CCK8, bound in μM
Experimental: The compound was formulated to a 10 mM mother liquor with DMSO, and then diluted into a series of 9 concentrations with a 3-fold gradient to form a 1000× stock solution. […] Prepare 1×Fluo-8 analysis buffer: mix 9 mL of HHBS, 1 mL of 10× Pluronic F127 Plus and 20 μL of Fluo-8 thoroughly for later use. • 3. Add Fluo-8 dye working solution to the cell plate, 100 μL/well. […] In the process of incubating cells, the compounds to be detected were prepared with HHBS. • 5. […]
Where a SMILES comes first, the peptide text is derived from it. [ ]: non-standard residue; d: D form. Phe(3-Br) = N[C@@H](Cc1cccc(Br)c1)C(=O)O

INSERT INTO results (compound, attribute_measured, reported_measurement) VALUES
  ('COC(=O)C[C@H](NC(=O)[C@H](CCSC)NC(=O)[C@H](N)Cc1c[nH]c2ccccc12)C(=O)N[C@@H](Cc1cccc(F)c1)C(N)=O', 'EC50', '~10 µM'),
  ('CSCC[C@H](NC(=O)[C@H](Cc1c[nH]c2ccccc12)NC(C)=O)C(=O)N[C@@H](CC(=O)O)C(=O)N[C@@H](Cc1c[nH]cn1)C(N)=O [HT-191, Ac-Trp-Met-Asp-His-NH2] (Ac-WMDH-NH2)', 'EC50', '> 10 µM'),
  ('CSCC[C@H](NC(=O)[C@@H](Cc1c[nH]c2ccccc12)NC(C)=O)C(=O)N[C@@H](CC(N)=O)C(=O)N[C@@H](Cc1cccc(Br)c1)C(N)=O [HT-187, Ac-D-Trp-Met-Asn-Phe(3-Br)-NH2] (Ac-[dW]MN[Phe(3-Br)]-NH2)', 'EC50', '> 10 µM');

Could you now look at the following compound, please?
Query :: Value lookup for EC50; key = C[S+]([O-])CC[C@H](NC(=O)[C@H](N)Cc1c[nH]c2ccccc12)C(=O)N[C@@H](CC(=O)O)C(=O)N[C@@H](Cc1cccc(F)c1)C(N)=O (stereo partly shown)
Result :: > 10 µM

----------
assay.target: CCK-B receptors (CHO-CCK) (Homo sapiens, UniProt P32239)
Construct: expressed in transfected cells; host or cells: CHO (CHO-CCK model cells)
Sequence (P32239 whole entry): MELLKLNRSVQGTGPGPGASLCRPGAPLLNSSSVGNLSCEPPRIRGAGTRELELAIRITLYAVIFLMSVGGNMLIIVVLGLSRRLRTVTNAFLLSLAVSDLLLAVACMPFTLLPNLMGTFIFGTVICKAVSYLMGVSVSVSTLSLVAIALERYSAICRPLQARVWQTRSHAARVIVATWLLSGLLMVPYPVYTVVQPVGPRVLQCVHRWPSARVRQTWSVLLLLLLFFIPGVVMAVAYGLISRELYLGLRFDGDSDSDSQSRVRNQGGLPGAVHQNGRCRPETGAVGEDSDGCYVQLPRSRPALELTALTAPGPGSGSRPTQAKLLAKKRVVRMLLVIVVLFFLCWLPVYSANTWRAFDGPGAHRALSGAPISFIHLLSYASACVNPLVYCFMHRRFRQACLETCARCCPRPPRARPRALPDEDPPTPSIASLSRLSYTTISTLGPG
test.protocol: Calcium flux (Fluo-8) antagonist test on CHO-CCK model cells in presence of CCK8
Format: cell-based
experimental.conditions: compound together with 10 nM CCK8
Where a SMILES comes first, the peptide text is derived from it. [ ]: non-standard residue; d: D form. Phe(3-Br) = N[C@@H](Cc1cccc(Br)c1)C(=O)O; Nle = CCCC[C@H](N)C(=O)O
Reported EC50 values for a set of compounds
Numbers only; they are read as nM.

Solved cases below.
INSERT INTO assay_data (compound, reported_measurement) VALUES
  ('COC(=O)C[C@H](NC(=O)[C@H](CCSC)NC(=O)[C@H](N)Cc1c[nH]c2ccccc12)C(=O)N[C@@H](Cc1cc(Cl)cc(Cl)c1)C(N)=O', 3620),
  ('CSCC[C@H](NC(=O)[C@H](N)Cc1c[nH]c2ccccc12)C(=O)N[C@@H](CC(=O)O)C(=O)N[C@@H](Cc1ccc([N+](=O)[O-])cc1)C(N)=O', 1200),
  ('CCCC[C@H](NC(=O)[C@H](Cc1c[nH]c2ccccc12)NC(C)=O)C(=O)N[C@@H](CC(=O)O)C(=O)N[C@@H](Cc1cccc(Br)c1)C(N)=O [HT-177, Ac-Trp-Nle-Asp-Phe(3-Br)-NH2] (Ac-W[Nle]D[Phe(3-Br)]-NH2)', 279),
  ('CSCC[C@H](NC(=O)[C@H](N)Cc1c[nH]c2ccccc12)C(=O)N[C@@H](CC(=O)O)C(=O)N[C@@H](Cc1ccc(F)cc1)C(N)=O', 876);

Here's the next entry for you.
Query :: // returns reported EC50 for input C[S+]([O-])CC[C@H](NC(=O)[C@H](N)Cc1c[nH]c2ccccc12)C(=O)N[C@@H](CC(=O)O)C(=O)N[C@@H](Cc1cccc(Cl)c1)C(N)=O (some centres unmarked)
Result :: 8970
